Target System: 3-phosphoinositide-dependent protein kinase 1 (Homo sapiens) (UniProt O15530)
Experiment Notes: Inhibition of recombinant PDK1 (unknown origin)
Experimental Endpoint: IC50

Just so you know, measured IC50 for "COc1cc2ncnc(Nc3ccc(F)c(Cl)c3)c2cc1NC(=O)/C=C/CN1CCCCC1" came out at > 10 µM
